Biological target: Nuclear receptor subfamily 1 group I member 2 (Homo sapiens)
Experiment: Human pregnane X receptor (PXR) small molecule agonists, qHTS assay (AID 1346982); further: on the % scale 0 is the no-effect control and ±100 the full control effect; nearly all actives have a fitted effect of over 35% in size
Conditions: PXR-Luc HepG2, CYP3A4 luciferase reporter, 24 h; series mostly up to 92.4 µM
Records with an inconclusive call do not appear. Active and inactive are the calls of the source. The call rests on the fitted dose curve; in most records, active means well fitted activation curve with a large enough effect in the repeat runs; inconclusive means weak or mixed curves; inactive means no such curve, though single readings can be large or run the other way.
Outcome field: choose from active, inactive

Worked examples follow.
| compound | classLabel |
| --- | --- |
| C=CC(C)(CCC=C(C)C)OC(=O)CC (stereo not given) | inactive |
| Nc1c2c(nc3c1CCC3)CCCC2 | inactive |
| Cc1ncc([C@@H](CCCCCCc2ccc3c(n2)NCCC3)CC(=O)O)cn1 | inactive |
| C=C(C)C(=O)OCCOCCOCCOCCOC(=O)C(=C)C | inactive |
| CN(C)[C@@H]1C(=O)C(C(=O)NCN2CCCC2)=C(O)[C@@]2(O)C(=O)C3=C(O)c4c(O)cccc4[C@@](C)(O)C3C[C@@H]12 (stereo not given in full) | inactive |

# lookup: test call for CCC1C(=O)OCC1Cc1cncn1C (stereo not given)
inactive

Try the compound `CO[C@@]1(NC(=O)CSC[C@@H](N)C(=O)O)C(=O)N2C(C(=O)O)=C(CSc3nnnn3C)CS[C@@H]21`
inactive

----------
Molecular target: Voltage-gated inwardly rectifying potassium channel KCNH2 (Homo sapiens)
Assay: Human Ether-a-go-go-Related Gene (hERG) channel small molecule antagonists: fluorescence cell-based qHTS assay (AID 1671200);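 further: hERG-expressing U2OS cells given a thallium stimulus after FluxOR II dye loading; on the % scale 0 is the no-effect control and ±100 the full control effect; nearly all actives have a fitted effect of over 50% in size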
Settings: hERG-U2OS cells, FluxOR thallium flux fluorescence; series mostly up to 76.8 µM
Inconclusive results are not listed. Activity calls are given as the source filed them. Calls follow the shape of the dose curve; as a rule, active = well fitted inhibition curve with a large enough effect in the repeat runs; inconclusive = weak or mixed curves; inactive = flat fitted curve, though single readings scatter.
measurementLabel: activity change, negative = inhibition

The examples below pair each entry with its known result.
| compound | testTarget | result |
| --- | --- | --- |
| CCCCCCCCN1CCCC1=O | Voltage-gated inwardly rectifying potassium channel KCNH2 (Homo sapiens) | inactive |
| C=COCC1CCC(COC=C)CC1 (centres undefined) | Voltage-gated inwardly rectifying potassium channel KCNH2 (Homo sapiens) | inactive |
| CCN[C@@H]1C[C@H](N)[C@@H](OC2OC(CN)=CCC2N)[C@H](O)[C@H]1O[C@H]1OC[C@](C)(O)[C@H](NC)[C@H]1O (some centres undefined) | Voltage-gated inwardly rectifying potassium channel KCNH2 (Homo sapiens) | -0.868% [at 0.29 µM] (inactive) |
| Cc1cc(C)c(N=Nc2c(O)c(S(=O)(=O)O)cc3cc(S(=O)(=O)O)ccc23)cc1C | Voltage-gated inwardly rectifying potassium channel KCNH2 (Homo sapiens) | -0.475% [at 6.97 µM] (inactive) |
| O=C(c1ccccc1)C1(O)CCCCC1 | Voltage-gated inwardly rectifying potassium channel KCNH2 (Homo sapiens) | inactive |

Name the reported activity change, negative = inhibition value associated with the compound `CC[N+](CC)(CC)CCOc1cccc(OCC[N+](CC)(CC)CC)c1OCC[N+](CC)(CC)CC`
inactive

----------
Experiment: qHTS assay to identify small molecule antagonists of the estrogen receptor alpha (ER-alpha) signaling pathway using the BG1 cell line in the presence of 0.1 nM 17-beta-estradiol - cell viability counter screen (AID 1259241); further: on the % scale 0 is the no-effect control and ±100 the full control effect; nearly all actives have a fitted effect of over 40% in size
Settings: VM7Luc4E2 (BG1) viability, CellTiter-Fluor protease, 22 h, 0.1 nM estradiol agonist added; series mostly up to 92.4 µM
Inconclusive results are not listed. Active and inactive are the calls of the source. Calls follow the shape of the dose curve; as a rule, active = well fitted cell-killing curve with a large enough effect in the repeat runs; inconclusive = weak or mixed curves, or effect the other way; inactive = flat fitted curve, though single readings scatter.
measurementLabel: activity change, negative = cytotoxicity

| compound | result |
| --- | --- |
| CC1(C)[C@@H]2CC[C@@]1(C)[C@H](O)C2 | inactive |
| CC/C=C\CCOC(C)OCC (stereo not drawn) | inactive |
| CCC(C)(CCCC(C)C)OC(C)=O (stereo not drawn) | inactive |
| CC(=O)c1ccccc1[N+](=O)[O-] | inactive |
| CNC(=O)Nc1ccc(Cl)c(Cl)c1 | inactive |

I am curious: what activity change, negative = cytotoxicity value has been reported for `O=C(c1ccccc1)C1(O)CCCCC1` ?
inactive

And the next one, `C[N+](C)(CCOc1ccccc1)Cc1cccs1` ?
inactive

`CO[Si](C)(OC)c1ccccc1` ?
inactive
